Entry source: patent US12691070B2

# AST in Sera (IU/L) 24 hours After 0.5 MPK Injection per record follows
# Tested on: Aspartate Aminotransferase (AST)
# assayText: Liver enzyme elevation in serum, AST
# Assay type: in vivo
# experimentalSetup: cirRNA (SEQ ID NO: 1) LNPs; BALB/C mice; intravenous 0.5 MPK; 24 hours
valueType: AST in Sera (IU/L) 24 hours After 0.5 MPK Injection

| compound | observedMeasurement |
| --- | --- |
| CCCCC/C=C\C/C=C\CCCCCCCCN(CCCCCCCC(=O)OC(CCCCCCCC)CCCCCCCC)CCCOC(=O)NCCN(C)C | 220.00 IU/L |
| CCCCCCCCC(CCCCCC)C(=O)OCCCCCCCCN(CCCCCCCCCCC(=O)OCCCCCC)CCOC(=O)NCCN(C)C (centres unmarked) | 88.97 IU/L |
| CCCCCCCCC(CCCCCCCC)OC(=O)CCCCCCCN(CCCCCCCCOC(=O)C(CCCCCC)CCCCCCCC)CCCOC(=O)NCCCN(C)C (centres unmarked) | 148.00 IU/L |
| CCCCCCCCCCC(CCCCCCCC)COC(=O)CCCCCN(CCCCCC(=O)OCC(CCCCCCCC)CCCCCCCCCC)CCCOC(=O)NCCN1CCCC1 (centres unmarked) | 290.00 IU/L |
| CCCCC/C=C\C/C=C\CCCCCCCCN(CCCCCCCC(=O)OC(CCCCCCCC)CCCCCCCC)CCOC(=O)NCCN1CCCCC1 | 91.53 IU/L |
| CCCCCCCCC(CCCCCCCC)OC(=O)CCCCCCCN(CCCCCCCCOC(=O)C(CCCCCC)CCCCCCCC)CCOC(=O)NCCN(C)C (centres unmarked) | 148.60 IU/L |
| CCCCCCCCCCC(CCCCCCCC)COC(=O)CCCCCN(CCCCCC(=O)OCC(CCCCCCCC)CCCCCCCCCC)CCCOC(=O)NCCN1CCCCC1 (centres unmarked) | 413.33 IU/L |
| CCCCCCCCC(CCCCCC)C(=O)OCCCCCCCCN(CCCCCCCCOC(=O)C(CCCCCC)CCCCCCCC)CCCOC(=O)NCCN(C)C (centres unmarked) | 431.67 IU/L |
| CCCCC/C=C\CCOC(=O)CCCCCN(CCCCCC(=O)OCC(CCCCCCCC)CCCCCCCCCC)CCOC(=O)NCCN1CCCCC1 (centres unmarked) | 187.67 IU/L |
| CCCCCCCCC(CCCCCC)C(=O)OCCCCCCCCN(CCCCCCCCOC(=O)C(CCCCCC)CCCCCCCC)CCOC(=O)NCCN(C)C (centres unmarked) | 411.00 IU/L |
| CCCCC/C=C\C/C=C\CCCCCCCCN(CCCCCC(=O)OCC(CCCCCCCC)CCCCCCCCCC)CCOC(=O)NCCN(C)C (centres unmarked) | 94.83 IU/L |
| CCCCC/C=C\C/C=C\CCCCCCCCN(CCCCCCCC/C=C\CCCCCCCC)CCOC(=O)NCc1ncc[nH]1 | 60.20 IU/L |
| CCCCC/C=C\C/C=C\CCCCCCCCN(CCCCCCCC(=O)OC(CCCCCCCC)CCCCCCCC)CCOC(=O)NCCN(C)C | 112.03 IU/L |
| CCCCCCCCC(CCCCCC)C(=O)OCCCCCCCCN(CCCCCCCCOC(=O)C(CCCCCC)CCCCCCCC)CCCOC(=O)NCCN1CCCCC1 (centres unmarked) | 480.67 IU/L |
| CCCCCCCCCCC(CCCCCCCC)COC(=O)CCCCCN(CCCCCCCCOC(=O)C(CCCCCC)CCCCCCCC)CCOC(=O)NCCN(C)C (centres unmarked) | 94.73 IU/L |
| CCCCCCCCC(CCCCCC)C(=O)OCCCCCCCCN(CCCCCCCCOC(=O)C(CCCCCC)CCCCCCCC)CCCOC(=O)NCc1ncc[nH]1 (centres unmarked) | 251.67 IU/L |
| CCCCC/C=C\C/C=C\CCCCCCCCN(CCCCCCCC(=O)OC(CCCCCCCC)CCCCCCCC)CCOC(=O)NCCN1CCCC1 | 131.30 IU/L |
| CCCCCCCCC(CCCCCC)C(=O)OCCCCCCCCN(CCCCCCCCOC(=O)C(CCCCCC)CCCCCCCC)CCCOC(=O)NCCCN(CC)CC (centres unmarked) | 293.67 IU/L |
| CCCCCCCCCCCOC(=O)CCCCCN(CCCCCCCC(=O)OC(CCCCCCCC)CCCCCCCC)CCOC(=O)NCCN1CCCCC1 | 99.03 IU/L |
| CCCCC/C=C\C/C=C\CCCCCCCCN(CCCCCCCC(=O)OC(CCCCCCCC)CCCCCCCC)CCCOC(=O)NCCN1CCCCC1 | 322.67 IU/L |
| CCCCCCCCC(CCCCCCCC)OC(=O)CCCCCCCN(CCCCCCCCOC(=O)C(CCCCCC)CCCCCCCC)CCOC(=O)NCCN1CCCC1 (centres unmarked) | 108.13 IU/L |
| CCCCC/C=C\C/C=C\CCCCCCCCN(CCCCCC(=O)OCCCCCCCCCCC)CCOC(=O)NCc1ncc[nH]1 | 64.70 IU/L |
| CCCCC/C=C\C/C=C\CCCCCCCCN(CCCCCCCC(=O)OC(CCCCCCCC)CCCCCCCC)CCCOC(=O)NCc1ncc[nH]1 | 231.33 IU/L |
| CCCCC/C=C\C/C=C\CCCCCCCCN(CCCCCCCC(=O)OC(CCCCCCCC)CCCCCCCC)CCCOC(=O)NCCCn1ccnc1 | 89.67 IU/L |
| CCCCCCCCCCC(CCCCCCCC)COC(=O)CCCCCN(CCCCCC(=O)OCC(CCCCCCCC)CCCCCCCCCC)CCOC(=O)NCCN1CCCC1 (centres unmarked) | 139.13 IU/L |
| CCCCC/C=C\C/C=C\CCCCCCCCN(CCCCCCCC(=O)OC(CCCCCCCC)CCCCCCCC)CCOC(=O)NCCCN(CC)CC | 83.17 IU/L |
